Origin of measurements: PubChem BioAssay

- target-of-assay: NADPH oxidase 2 (Homo sapiens) (UniProt P04839)
- Sequence (P04839 whole entry, looked up): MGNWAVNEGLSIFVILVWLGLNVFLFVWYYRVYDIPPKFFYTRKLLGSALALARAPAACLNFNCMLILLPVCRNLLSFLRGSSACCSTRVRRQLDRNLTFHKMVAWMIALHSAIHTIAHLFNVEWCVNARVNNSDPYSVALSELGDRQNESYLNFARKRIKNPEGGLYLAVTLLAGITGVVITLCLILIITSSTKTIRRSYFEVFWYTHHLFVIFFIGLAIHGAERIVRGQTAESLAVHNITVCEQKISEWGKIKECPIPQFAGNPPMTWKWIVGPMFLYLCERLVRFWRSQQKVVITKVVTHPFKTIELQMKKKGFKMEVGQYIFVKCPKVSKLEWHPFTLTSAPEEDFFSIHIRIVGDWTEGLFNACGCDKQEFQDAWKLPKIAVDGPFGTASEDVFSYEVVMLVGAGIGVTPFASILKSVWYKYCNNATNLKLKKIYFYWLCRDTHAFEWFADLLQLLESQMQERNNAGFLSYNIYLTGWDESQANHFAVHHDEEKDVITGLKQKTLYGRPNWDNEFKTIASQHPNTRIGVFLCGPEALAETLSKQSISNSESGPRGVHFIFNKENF
- method-description: NOX2-dependent H2O2 signal modulators, primary screen, NOX inhibitor project, cell-based, HEK293-NOX2, PMA-stimulated, Amplex Red fluorescence (AID 1159); also: test concentration not given here
- setup-conditions: 45 min, higher = more signal, called active from +8 up or from −8 down
Reported z-score values follow for various compounds

compound	z-score
COCCCNC(=O)[C@@]1(c2ccc([N+](=O)[O-])cc2)CC(=O)N(CC23CC4CC(CC(C4)C2)C3)[C@@H]1c1ccc(CO)cc1	-0.237
C=C[C@@H](COC(C)=O)N(Cc1ccc([N+](=O)[O-])cc1)S(=O)(=O)c1ccc(Br)cc1	0.495
Cc1c(NC(=O)CC#N)c(=O)n(-c2ccccc2)n1C	-0.463
Cc1ccc(S[C@]2(C(=O)NC3CC3)CC(=O)N(C3CCCCC3)[C@@H]2c2ccc(CO)cc2I)cc1	0.655
CC(C)C(=C=CC[C@H](O)c1cccc(OCCO)c1)C[C@H](O)COCc1ccccc1	-1.77
CC(C)c1ccc(NN2C(C(O)c3c(F)cccc3Cl)C=CC3C(=O)N(c4ccccc4)C(=O)C32)cc1 (configuration not stated)	-1.38
CCCN1C(=O)[C@@]2(CCC(=O)OC(C)(C)C)N=C(c3ccc(OCCCO)cc3)O[C@H]2c2ccccc21	-2.74
CN(C)C(=O)[C@]1(CCC(=O)OC(C)(C)C)N=C(c2ccc(OCCCO)cc2)O[C@@H]1c1ccccc1N=[N+]=[N-]	-4.53
Cc1ccccc1C(O)C1C=CC2C(=O)N(C)C(=O)C2N1N1CCCCC1 (configuration not stated)	-0.182
C=CCC(OC(C)=O)[C@@H]1[C@@H](N(Cc2cc3ccccc3o2)C(=O)c2ccc(C)cc2)c2cc(OCCCO)ccc2N1C(=O)c1ccc2ccccc2c1 (some centres not stated)	0.355
CN1C(=O)C2C(C1=O)C1C=C(CCCO)C2C(c2cccs2)N1C (configuration not stated)	0.108
CN1C=C(C(=O)OCCS(C)(=O)=O)C(C(=O)OCCS(C)(=O)=O)=CC(CCCO)=CC1C1CC1 (configuration not stated)	-2.51
CCCNC(=O)[C@@H]1c2ccccc2C(=O)N(Cc2ccccc2)[C@H]1c1ccc(CO)cc1	-0.802
C[N+](C)(C)CCCCCCNC(=O)[C@H]1C[C@H]2C(=O)N3CCC[C@H]3C(=O)N2[C@H]1c1ccc(O)cc1	-0.87
O=C1c2ccccc2[C@@]2(Cc3ccccc3N(Cc3ccccc3)C2=O)[C@H](c2ccc(CO)cc2)N1C1CCCCC1	0.162
COC(=O)[C@@]1(Cc2ccc(F)cc2)[C@H]2c3cc(C(=O)N(C)C)n(CCc4ccccn4)c3C[C@H]2CN1C(=O)c1ccccc1	0.831
C=CC[C@@H](OC(=O)Nc1ccc(OC)cc1)c1ccc(O)c2ccccc12	-6.06

* * *

- Test system: Noggin (protein binding on small-molecule microarray)
- method-description: Noggin binders on small-molecule microarray, primary screen, biochemical, 635/667 nm fluorescence (AID 1095);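 also: score merges 667 nm feature fluorescence with signal to noise over triplicate slides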
- setup-conditions: 635 nm fluorescence, higher = more signal
endpoint-name: composite z-score

compound	endpoint-result
CC(C)CNC(=O)[C@@H]1c2ccccc2C(=O)N(Cc2cc(C(F)(F)F)cc(C(F)(F)F)c2)[C@H]1c1ccc(CO)cc1	-0.96
COc1ccc(C#Cc2ccc3c(c2)[C@]2(C(=O)N3)[C@H](C(=O)NC[C@H](O)c3ccccc3)[C@H]3C(=O)O[C@H](c4ccccc4)[C@H](c4ccccc4)N3[C@@H]2c2ccc(OCCO)cc2)cc1	1.52
O=C(NCc1ccccc1)[C@]1(CCS(=O)(=O)c2ccccc2)N=C(c2ccc(OCCCO)cc2)O[C@@H]1c1ccccc1	0.204
COC(=O)C(CC#Cc1ccc2c(c1)[C@]1(C(=O)N2)[C@H](c2ccc(OCCO)cc2)N2[C@H](c3ccccc3)[C@H](c3ccccc3)OC(=O)[C@H]2[C@@H]1C(=O)NC[C@H](O)c1ccccc1)C(=O)OC	0.617
CCOC(=O)C[C@H]1[C@H](OC(=O)c2ccc(-c3ccccc3)cc2)[C@@H](NC(=O)c2ccc(-c3ccccc3)cc2)c2cc(OCCCO)ccc2N1C(=O)Cc1ccc(OC)cc1	-0.31
CCOC(=O)C1=CCC(c2ccc(C#N)cc2)N(S(=O)(=O)c2ccc(C)cc2)C1 (stereo unspecified)	-0.184

* * *

Reported composite z-score values follow for various compounds
- target-of-assay: Follistatin-related protein 3 (Homo sapiens)
- method-description: FSTL3 binders on small-molecule microarrays, primary screen, biochemical, small-molecule microarray, 635 nm fluorescence (AID 1105);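 also: score merges emission near 667 nm and signal to noise per printed spot across three slides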
- setup-conditions: FSTL3 binding, higher = more signal

compound	composite z-score
C=C[C@@H](COC(C)=O)N(Cc1ccccc1[N+](=O)[O-])S(=O)(=O)c1ccc(Br)cc1	1.39
C=CCC(OC(C)=O)[C@@H]1[C@@H](N(Cc2cc3ccccc3o2)C(=O)c2ccc(C)cc2)c2cc(OCCCO)ccc2N1C(=O)c1ccc2ccccc2c1 (stereo partly specified)	0.194
[N-]=[N+]=Nc1ccccc1[C@@H]1OC(c2ccc(OCCCO)cc2)=N[C@]1(CCS(=O)(=O)c1ccccc1)C(=O)N1CCOCC1	1.36
COC(=O)[C@@]1(Cc2ccccc2)[C@H]2c3cc(C(=O)N4CCCC4)n(C)c3C[C@H]2CN1C(=O)c1ccccc1	0.803
O=C(O)[C@H]1C[C@H]2C(=O)NCC(=O)N2[C@H]1c1ccc(O)cc1	0.845
CC(=CC1CCCCC1)[C@@H](NC(=O)c1ccc(C(F)(F)F)cc1)c1ccc(-c2ccccc2)cc1	0.138
CCOC(=O)C[C@H]1[C@H](OC(=O)c2ccc(-c3ccccc3)cc2)[C@@H](NC(=O)Cc2ccc(OC)cc2)c2cc(OCCCO)ccc2N1C(=O)c1ccc2ccccc2n1	0.367
COc1cccc(C(=O)O[C@H]2CC[C@]3(C)C4=C(CCC3C2(C)C)[C@]2(C)CC[C@H]([C@H](C)CCCC(C)C)[C@@]2(C)CC4)c1 (stereo partly specified)	0.459
C[C@]1(C(=O)NCc2ccccc2)c2ccccc2C(=O)N(Cc2ccc(OC(F)(F)F)cc2)[C@H]1c1ccc(CO)cc1	0.115
CC(C)(C)N1CC=CC23O[C@@H]4C=CCOC(=O)[C@@H]4[C@H]2C(=O)N(CCCCCO)[C@@H]3C1=O (stereo partly specified)	-1.67
COc1ccc(C(O)C2C=CC3C(=O)NC(=O)C3N2Nc2ccccn2)cc1OCc1ccccc1 (stereo unspecified)	0.187
C=CC[C@]1(C(=O)N2CCOCC2)N=C(c2ccc(OCCCO)cc2)O[C@H]1c1ccccc1	-0.524
CC1=C2[C@@H](CCc3ccccc3)OB(O)C[C@@H]2n2c(=O)n(-c3ccccc3)c(=O)n2C1	0.894
CC(C)C[C@@H]1NC(=O)[C@H]2C[C@@H](C(=O)NCCCCCNC(=O)CS)[C@@H](c3cccc(OCCO)c3)N2C1=O	1.36
COCCCNC(=O)[C@@]1(CCC(=O)OC(C)(C)C)N=C(c2ccc(OCCCO)cc2)O[C@H]1c1ccccc1CN=[N+]=[N-]	0.932
C#CCN(C(/C=C/c1ccccc1)CO)C(C(=O)O)c1ccccc1 (stereo unspecified)	-0.435

* * *

- Tested on: Neuregulin-1 EGF-like domain
- method-description: binders of neuregulin-1 EGF-like domain, primary screen, biochemical, small-molecule microarray, 635 nm fluorescence (AID 1081);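 also: binding of the protein to compounds printed on small-molecule microarray slides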
- setup-conditions: small-molecule microarray binding, higher = more signal
The threshold is inclusive: composite z-score of exactly 1 counts as Y; values below receive N.

compound	group-label
COCCOC(=O)N1C(=O)[C@@]2(c3ccccc31)[C@H](C(=O)NC[C@H](O)c1ccccc1)[C@H]1C(=O)O[C@H](c3ccccc3)[C@H](c3ccccc3)N1[C@@H]2c1ccc(OCCO)cc1	Y
Cc1cc(C)cc(N2C(=O)CS(=O)(=O)C2c2cccc([N+](=O)[O-])c2)c1 (stereo not drawn)	Y
COCC(=C=CC[C@H](O)c1ccc(OCCO)cc1)C[C@H](O)c1cc(Cl)cc(Cl)c1O	Y
COCCOC(=O)N1C(=O)[C@@]2(c3cc(C#CCCO)ccc31)[C@H](c1ccccc1OCCO)N1[C@H](c3ccccc3)[C@H](c3ccccc3)OC(=O)[C@H]1[C@@H]2C(=O)N1CCN(c2ncccn2)CC1	Y
CCCC[C@@H]1C[C@H]1[C@@H](NC(=O)c1ccc(-c2ccccc2)cc1)c1ccc(-c2ccccc2)cc1	N
[N-]=[N+]=Nc1ccccc1C[C@]1(C(=O)NCCN2CCOCC2)N=C(c2ccc(OCCCO)cc2)O[C@H]1c1ccccc1	Y
COc1ccc([Si](C)(C)[C@H]2[C@H](CCn3cc([C@H](O)c4ccccc4)nn3)O[C@@]3(C(=O)N(Cc4cccc(N5CCC5=O)c4)c4ccccc43)[C@@H]2C)cc1	N
O=C1N(CCS(=O)(=O)c2ccccc2)Cc2ccccc2[C@H]2OC(c3ccc(OCCCO)cc3)=N[C@@]12CCS(=O)(=O)c1ccccc1	Y
COC(=O)[C@@]1(Cc2ccc(OC)cc2)[C@H]2c3cc(C(=O)N4CCCC4)n(Cc4cc(F)cc5c4OCOC5)c3C[C@H]2CN1C(=O)c1ccccc1	Y
[N-]=[N+]=NCc1ccccc1C[C@]1(C(=O)NCCN2CCOCC2)N=C(c2ccc(OCCCO)cc2)O[C@H]1c1ccccc1N=[N+]=[N-]	Y
COC(=O)c1ccc(C(O)C2C=CC3C(=O)N(c4ccccc4)C(=O)C3N2Nc2ccc(C#N)cc2)o1 (stereo not drawn)	Y
O=C1O[C@@H](c2ccccc2)[C@@H](c2ccccc2)N2[C@@H](c3ccc(O)cc3)[C@]3(C(=O)Nc4ccc(C#CC5(O)CCCCCC5)cc43)[C@@H](C(=O)N3CCCCCCC3)[C@H]12	Y
CCCN1C(=O)[C@@]2(CCC(=O)OC(C)(C)C)N=C(c3ccc(OCCCO)cc3)O[C@H]2c2ccccc21	N
O=C(CS)NCCCCCCNC(=O)[C@H]1C[C@H]2C(=O)N3CCC[C@H]3C(=O)N2[C@H]1c1cccc(OCCO)c1	Y
O=c1cccc(CCc2ccccc2)o1	Y
CCOC(=O)C1=CC[C@@H](c2ccccc2)N(S(=O)(=O)c2ccc(C)cc2)[C@H]1C(=O)OCC	Y
Cc1ccc([C@H]2C(C(=O)O)=C[C@@H](C)N2S(=O)(=O)c2ccc(C)cc2)cc1	N
COCCOC(=O)N1C(=O)[C@@]2(c3cc(C#Cc4ccc(OC)cc4)ccc31)[C@H](C(=O)N1CCN(c3ncccn3)CC1)[C@H]1C(=O)O[C@H](c3ccccc3)[C@H](c3ccccc3)N1[C@@H]2c1ccc(O)cc1	N
O=C(O)[C@@]1(Cc2ccccc2)N=C(c2ccc(OCCCO)cc2)O[C@H]1c1ccccc1	N
CC1CC/C=C\[C@H]2OC34C=CCN(Cc5ccccc5)C(=O)[C@H]3N(CCCCCO)C(=O)[C@@H]4C2C(=O)O1 (stereo partly drawn)	Y
Cc1ccc([C@H]2[C@H](C(=O)O)[C@H](Sc3ccccc3)[C@@H](C(C)C)N2S(=O)(=O)c2ccc(C)cc2)cc1	N
O=C1C2C=CC(C(O)c3ccc(F)cc3)N(Nc3ccccc3)C2C(=O)N1c1ccccc1 (stereo not drawn)	Y
COCCOC(=O)N1C(=O)[C@@]2(c3ccccc31)[C@H](c1ccc(O)cc1)N1[C@H](c3ccccc3)[C@H](c3ccccc3)OC(=O)[C@H]1[C@@H]2C(=O)N1CCc2cc(OC)c(OC)cc2C1	N
O=C1O[C@H](c2ccccc2)[C@H](c2ccccc2)N2[C@H]1[C@@H](C(=O)O)[C@]1(C(=O)Nc3ccc(C#CC4(O)CCCCCC4)cc31)[C@H]2c1ccc(OCCO)cc1	Y
CC(C)C(=C=CC[C@@H](O)c1ccccc1OCCO)C[C@@H](O)c1ccccn1	Y
COCCCNC(=O)[C@@]1(C)c2ccccc2C(=O)N(Cc2cc(C(F)(F)F)cc(C(F)(F)F)c2)[C@H]1c1ccc(CO)cc1	N
CC(C)NC(=O)[C@@H]1c2ccccc2C(=O)N(Cc2ccccc2Cl)[C@H]1c1ccc(CO)cc1	Y
Cc1ccc(S[C@]2(C(=O)NCc3ccccc3)CC(=O)N(Cc3ccccc3Cl)[C@@H]2c2ccc(CO)cc2I)cc1	N
